Details: 308.15 K; 101.33 kPa; Liquid; Concentric cylinders viscometry
Numbers after ± are expanded uncertainties.
Below: a set of entries, each annotated with reported viscosity.
Write the figure, then the unit, nothing else.

# molecule, viscosity
records = [
    ("CCCCCCCCCCCC[n+]1ccccc1.O=S(=O)([N-]S(=O)(=O)C(F)(F)F)C(F)(F)F [1-dodecylpyridinium bis(trifluoromethylsulfonyl)imide]", "116.63 ± 2.9 mPa·s"),
    ("CCCCCCCC[n+]1ccccc1.O=S(=O)([N-]S(=O)(=O)C(F)(F)F)C(F)(F)F [1-octylpyridinium bis((trifluoromethyl)sulfonyl)amide]", "70.13 ± 1.6 mPa·s"),
    ("CCCCCCCCCC[n+]1ccccc1.O=S(=O)([N-]S(=O)(=O)C(F)(F)F)C(F)(F)F [1-decylpyridinium bis(trifluoromethylsulfonyl)imide]", "90.82 ± 2.1 mPa·s"),
]

Now for the molecule whose viscosity we want.
Query :: Quickly give me recorded viscosity for CCCC[n+]1ccccc1.O=S(=O)([N-]S(=O)(=O)C(F)(F)F)C(F)(F)F [1-butylpyridinium bis[(trifluoromethyl)sulfonyl]imide]
Result :: 39.65 ± 0.9 mPa·s
